test system: MDA-MB-231; test: Antiproliferative activity against human MDA-MB-231 cells at 2 mM after 72 hrs by MTS/PMS assay; settings: MDA-MB-231, 72 h

| smilesInput | unitsText | inhibition at 2000 µM |
| --- | --- | --- |
| N#Cc1ccc(NC(=O)c2ccc3c(c2)nc(-c2ccc(Cl)cc2Cl)n3Cc2ccc(F)cc2)cc1C(F)(F)F | % | 26.1 |
| N#Cc1ccc(NC(=O)c2ccc(NCc3ccc(F)cc3)c(N)c2)cc1C(F)(F)F | % | 9.8 |
| N#Cc1ccc(NC(=O)c2ccc(F)c([N+](=O)[O-])c2)cc1C(F)(F)F | % | 60 |
| N#Cc1ccc(NC(=O)c2ccc(NCc3ccc(F)cc3)c(NC(=O)c3ccc(Cl)cc3Cl)c2)cc1C(F)(F)F | % | 0 |
| N#Cc1ccc(NC(=O)c2ccc(NCc3ccc(F)cc3)c([N+](=O)[O-])c2)cc1C(F)(F)F | % | 0 |
